Reported pKi values for the following binders.
TARGET UNDER TEST: recombinant native Bcl-xL (human, UniProt Q07817-1 1-209)
Sequence (Q07817 1-209): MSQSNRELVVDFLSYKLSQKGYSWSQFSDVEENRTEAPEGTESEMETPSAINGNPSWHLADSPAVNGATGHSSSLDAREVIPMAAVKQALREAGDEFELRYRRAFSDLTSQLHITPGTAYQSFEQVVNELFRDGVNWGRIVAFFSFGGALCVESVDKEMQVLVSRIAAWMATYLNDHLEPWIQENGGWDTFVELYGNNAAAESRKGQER
METHOD DESCRIPTION: fluorescence polarisation
pKi: −log10 of the molar value.

{"BINDER": "EQWAREIGAQLRRMADDLNAQYERRRQE [PUMA BH3 peptide]", "pKi": "> 10.00"}
{"BINDER": "LWAAQRYGRELRRMSDEFVDSFKKGLPR (peptide, UniProt Q92934 104-131, looked up) [Bad-28, recombinant Bad BH3 28-mer peptide]", "pKi": "> 10.00"}
